- Tested on: FBXW7
- assayExplanation: 3' UTR reporter interaction score (median-centred robust z-score of log2 firefly/Renilla activity); higher = less repression of the 3' UTR reporter
- testConditions: HEK293T; 48 h
reportedEndpoint: 3' UTR reporter interaction score
# respond with the number and nothing more

| sequenceString | reportedEndpoint | recordedNumber |
| --- | --- | --- |
| ACUGGGGGCUUUCGGGCUCUGCGU | 3' UTR reporter interaction score | 0.537 |
| UUCAAGUAAUCCAGGAUAGGC | 3' UTR reporter interaction score | 1.99 |
| AAUGGCGCCACUAGGGUUGUGCA | 3' UTR reporter interaction score | -0.576 |
| GUUUGCACGGGUGGGCCUUGUCU | 3' UTR reporter interaction score | -0.619 |
| UAGCAGCACAGAAAUAUUGGC | 3' UTR reporter interaction score | -1.49 |
| AGGCAGUGUAUUGUUAGCUGGC | 3' UTR reporter interaction score | 0.842 |

Using known records, supply 3' UTR reporter interaction score for UACAGUAUAGAUGAUGUACUAG -1.17

Using known records, supply 3' UTR reporter interaction score for UGCCUGGGUCUCUGGCCUGCGCGU -2.61

Using known records, supply 3' UTR reporter interaction score for AACAGGUGACUGGUUAGACAA 1.13

Using known records, supply 3' UTR reporter interaction score for GUGAGUCUCUAAGAAAAGAGGA 1.15

Using known records, supply 3' UTR reporter interaction score for UUUUGCACCUUUUGGAGUGAA -3.44

Using known records, supply 3' UTR reporter interaction score for AGACUUCCCAUUUGAAGGUGGC 0.497

Using known records, supply 3' UTR reporter interaction score for GCAAAGCACACGGCCUGCAGAGA 0.141

Using known records, supply 3' UTR reporter interaction score for UCGGAUCCGUCUGAGCUUGGCU 0.968

Using known records, supply 3' UTR reporter interaction score for AACAUUCAUUGUUGUCGGUGGGUU 0.226

Using known records, supply 3' UTR reporter interaction score for AGGGUGUUUCUCUCAUCUCU -0.794
